- system-under-test: 5-hydroxytryptamine receptor 2B (Homo sapiens, UniProt P41595)
- Sequence (P41595 whole entry): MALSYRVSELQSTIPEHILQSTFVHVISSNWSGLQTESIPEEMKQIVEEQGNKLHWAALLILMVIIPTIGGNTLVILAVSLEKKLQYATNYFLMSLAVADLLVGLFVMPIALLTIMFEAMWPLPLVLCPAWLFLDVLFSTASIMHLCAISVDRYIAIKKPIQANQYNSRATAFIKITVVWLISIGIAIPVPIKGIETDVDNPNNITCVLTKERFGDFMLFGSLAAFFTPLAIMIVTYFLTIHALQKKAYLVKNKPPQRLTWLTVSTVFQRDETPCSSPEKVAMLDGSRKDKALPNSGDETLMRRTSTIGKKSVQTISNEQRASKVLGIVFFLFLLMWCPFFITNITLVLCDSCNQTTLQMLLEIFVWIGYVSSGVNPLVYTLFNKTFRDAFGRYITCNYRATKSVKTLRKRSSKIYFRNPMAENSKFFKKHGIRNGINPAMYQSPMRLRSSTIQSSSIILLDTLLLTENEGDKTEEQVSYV
pKi: −log10 of the molar value.
measure-name: pKi

# chemical-smiles, reported-result
data = [
    ("Cc1nc2sccn2c(=O)c1CCN1CCC(=C(c2ccc(F)cc2)c2ccc(F)cc2)CC1", 9.00),
]

###

- system-under-test: 5-hydroxytryptamine receptor 2C (Homo sapiens)
- Sequence (P28335 whole entry): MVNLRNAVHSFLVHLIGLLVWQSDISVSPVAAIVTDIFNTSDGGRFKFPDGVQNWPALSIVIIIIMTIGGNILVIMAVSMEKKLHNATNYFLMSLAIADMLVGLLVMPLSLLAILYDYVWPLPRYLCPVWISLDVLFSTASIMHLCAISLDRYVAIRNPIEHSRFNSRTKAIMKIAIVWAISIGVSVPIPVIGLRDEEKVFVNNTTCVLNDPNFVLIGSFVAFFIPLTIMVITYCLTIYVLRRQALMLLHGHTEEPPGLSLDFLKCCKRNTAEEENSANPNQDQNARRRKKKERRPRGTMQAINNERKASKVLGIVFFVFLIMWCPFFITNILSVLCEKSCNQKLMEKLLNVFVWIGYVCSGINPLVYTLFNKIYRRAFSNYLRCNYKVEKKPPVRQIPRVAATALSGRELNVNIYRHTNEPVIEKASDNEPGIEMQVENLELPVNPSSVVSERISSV
pKi: −log10 of the molar value.

# chemical-smiles, pKi
measured = [
    ("CC(C)c1cc(-c2ccc(F)c3ccccc23)nc(N)n1", 6.40),
]

Every entry's value here was drawn from BindingDB's records for doi:10.1038/sj.bjp.0702632.
